Tested on: A498 complex spheroids with HUVEC/MSC, growth
Assay: Anticancer human tumor A498 cell line growth inhibition [AhR];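 further: luminescence signal used as a surrogate for viable cells; seven day exposure starting three days after spheroid seeding; luminescence viability scaled so 100% equals DMSO vehicle wells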
Settings: second compound 0.316 µM; first compound 3 µM; stronger effect = lower value
Source text: Multicellular complex tumor spheroid response to aryl hydrocarbon receptor antagonists in combination with a variety of drugs and investigational agents in selected tumor cell lines […] Compounds. […] If the clinical Cmax for an agent had not been determined, the highest concentration tested was 10 microM (Table 1). […]
Just a reminder that ties go to label 0: only viability, T/C strictly below 90% counts as label 1.

Past entries and their recorded results:
>  <molecule>
O=C(C=Cn1cnc(-c2cc(C(F)(F)F)cc(C(F)(F)F)c2)n1)NNc1cnccn1 + CC(CO)NC(=O)c1cc(-c2ccc(Cl)cc2)nn(-c2cnn(C)c2)c1=O

>  <class_label>
label 1

$$$$
>  <molecule>
O=C(C=Cn1cnc(-c2cc(C(F)(F)F)cc(C(F)(F)F)c2)n1)NNc1cnccn1 + Cc1ccccc1N=Nc1ccc(NC(=O)c2ccnn2C)c(C)c1

>  <class_label>
label 1

$$$$
>  <molecule>
CCN(c1cc(-c2ccc(CN3CCOCC3)cc2)cc(C(=O)NCc2c(C)cc(C)[nH]c2=O)c1C)C1CCOCC1 + CC(CO)NC(=O)c1cc(-c2ccc(Cl)cc2)nn(-c2cnn(C)c2)c1=O

>  <class_label>
label 0

$$$$
>  <molecule>
O=C(C=Cn1cnc(-c2cc(C(F)(F)F)cc(C(F)(F)F)c2)n1)NNc1cnccn1 + Cc1cncc(-c2nc(NCCc3c[nH]c4ccccc34)c3ncn(C(C)C)c3n2)c1

>  <class_label>
label 1

$$$$

Now look at this one.
Request: hey, is viability, T/C for CCN(c1cc(-c2ccc(CN3CCOCC3)cc2)cc(C(=O)NCc2c(C)cc(C)[nH]c2=O)c1C)C1CCOCC1 + Cc1ccccc1N=Nc1ccc(NC(=O)c2ccnn2C)c(C)c1 lower than 90% or not?
Response: label 0

---

test system: A498 complex spheroids with HUVEC/MSC, growth; test: Anticancer human tumor A498 cell line growth inhibition [AhR]; conditions: second compound 10 µM; first compound 0.0949 µM; active = viability on the fitted dose curve at most 10% of control; inactive = the rest;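 further: luminescence signal used as a surrogate for viable cells; seven day exposure starting three days after spheroid seeding; luminescence viability scaled so 100% equals DMSO vehicle wells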
The categories you may choose from are active, inactive

>  <compound>
Nc1ncn(C2CC(O)C(CO)S2)c(=O)n1 (stereo unspecified) + Cc1ccccc1N=Nc1ccc(NC(=O)c2ccnn2C)c(C)c1

>  <class_label>
inactive

$$$$
>  <compound>
O=C(C=Cn1cnc(-c2cc(C(F)(F)F)cc(C(F)(F)F)c2)n1)NNc1cnccn1 + Cc1cncc(-c2nc(NCCc3c[nH]c4ccccc34)c3ncn(C(C)C)c3n2)c1

>  <class_label>
active

$$$$
>  <compound>
O=C(C=Cn1cnc(-c2cc(C(F)(F)F)cc(C(F)(F)F)c2)n1)NNc1cnccn1 + CC(CO)NC(=O)c1cc(-c2ccc(Cl)cc2)nn(-c2cnn(C)c2)c1=O

>  <class_label>
inactive

$$$$

Request: // outcome(item) with item = CCN(c1cc(-c2ccc(CN3CCOCC3)cc2)cc(C(=O)NCc2c(C)cc(C)[nH]c2=O)c1C)C1CCOCC1 + Cc1cncc(-c2nc(NCCc3c[nH]c4ccccc34)c3ncn(C(C)C)c3n2)c1
Response: active

Request: // outcome(item) with item = CCN(c1cc(-c2ccc(CN3CCOCC3)cc2)cc(C(=O)NCc2c(C)cc(C)[nH]c2=O)c1C)C1CCOCC1 + Cc1ccccc1N=Nc1ccc(NC(=O)c2ccnn2C)c(C)c1
Response: inactive

Request: // outcome(item) with item = CC(C)CC(NC(=O)C(Cc1ccccc1)NC(=O)c1cnccn1)B(O)O (stereo unspecified) + Cc1ccccc1N=Nc1ccc(NC(=O)c2ccnn2C)c(C)c1
Response: active

---

test system: A498 complex spheroids with HUVEC/MSC, growth; assay: Anticancer human tumor A498 cell line growth inhibition [AhR]; settings: second compound 0.316 µM; first compound 0.001 µM; stronger effect = lower value;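 further: luminescence signal used as a surrogate for viable cells; seven day exposure starting three days after spheroid seeding; luminescence viability scaled so 100% equals DMSO vehicle wells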
measured_attribute: viability, T/C (%)
Answers are plain numbers, in %.

# annotated cases, reported viability, T/C shown
>  <molecule>
Cn1ncnc1C1c2n[nH]c(=O)c3cc(F)cc(c23)NC1c1ccc(F)cc1 (stereo unspecified) + CC(CO)NC(=O)c1cc(-c2ccc(Cl)cc2)nn(-c2cnn(C)c2)c1=O

>  <measured_attribute>
viability, T/C

>  <observed_value>
103

$$$$
>  <molecule>
CC[C@@]1(O)C(=O)OCc2c1cc1n(c2=O)Cc2cc3c(CN(C)C)c(O)ccc3nc2-1 + Cc1cncc(-c2nc(NCCc3c[nH]c4ccccc34)c3ncn(C(C)C)c3n2)c1

>  <measured_attribute>
viability, T/C

>  <observed_value>
92.2

$$$$
>  <molecule>
CC[C@@]1(O)C(=O)OCc2c1cc1n(c2=O)Cc2cc3c(CN(C)C)c(O)ccc3nc2-1 + Cc1ccccc1N=Nc1ccc(NC(=O)c2ccnn2C)c(C)c1

>  <measured_attribute>
viability, T/C

>  <observed_value>
99.7

$$$$
>  <molecule>
Cn1ncnc1C1c2n[nH]c(=O)c3cc(F)cc(c23)NC1c1ccc(F)cc1 (stereo unspecified) + Cc1ccccc1N=Nc1ccc(NC(=O)c2ccnn2C)c(C)c1

>  <measured_attribute>
viability, T/C

>  <observed_value>
91.5

$$$$
>  <molecule>
CC[C@@]1(O)C(=O)OCc2c1cc1n(c2=O)Cc2cc3c(CN(C)C)c(O)ccc3nc2-1 + CC(CO)NC(=O)c1cc(-c2ccc(Cl)cc2)nn(-c2cnn(C)c2)c1=O

>  <measured_attribute>
viability, T/C

>  <observed_value>
102

$$$$

Then this molecule:
Request: Dear colleague, please send me the reported viability, T/C for Cn1ncnc1C1c2n[nH]c(=O)c3cc(F)cc(c23)NC1c1ccc(F)cc1 (stereo unspecified) + Cc1cncc(-c2nc(NCCc3c[nH]c4ccccc34)c3ncn(C(C)C)c3n2)c1 when you can.
Response: 99.2

---

test system: A498 complex spheroids with HUVEC/MSC, growth; test: Anticancer human tumor A498 cell line growth inhibition [AhR]; details: second compound 10 µM; first compound 0.00316 µM; stronger effect = lower value;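 further: luminescence signal used as a surrogate for viable cells; seven day exposure starting three days after spheroid seeding; luminescence viability scaled so 100% equals DMSO vehicle wells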
measured_attribute: viability, T/C (%)
Answers are plain numbers, in %.

# annotated cases, reported viability, T/C shown
>  <compound>
Cn1ncnc1C1c2n[nH]c(=O)c3cc(F)cc(c23)NC1c1ccc(F)cc1 (configuration not stated) + Cc1ccccc1N=Nc1ccc(NC(=O)c2ccnn2C)c(C)c1

>  <assay_system>
A498 complex spheroids with HUVEC/MSC, growth

>  <measured_attribute>
viability, T/C

>  <measure_unit>
%

>  <observed_value>
90.8

$$$$
>  <compound>
CC1COCCN1c1cc(-c2ccnn2C)c2ccnc(-c3ccn[nH]3)c2n1 (configuration not stated) + Cc1ccccc1N=Nc1ccc(NC(=O)c2ccnn2C)c(C)c1

>  <assay_system>
A498 complex spheroids with HUVEC/MSC, growth

>  <measured_attribute>
viability, T/C

>  <measure_unit>
%

>  <observed_value>
90.1

$$$$
>  <compound>
Nc1ncn(C2CC(O)C(CO)O2)c(=O)n1 (configuration not stated) + Cc1cncc(-c2nc(NCCc3c[nH]c4ccccc34)c3ncn(C(C)C)c3n2)c1

>  <assay_system>
A498 complex spheroids with HUVEC/MSC, growth

>  <measured_attribute>
viability, T/C

>  <measure_unit>
%

>  <observed_value>
4.02

$$$$
>  <compound>
CC[C@@]1(O)C(=O)OCc2c1cc1n(c2=O)Cc2cc3c(CN(C)C)c(O)ccc3nc2-1 + CC(CO)NC(=O)c1cc(-c2ccc(Cl)cc2)nn(-c2cnn(C)c2)c1=O

>  <assay_system>
A498 complex spheroids with HUVEC/MSC, growth

>  <measured_attribute>
viability, T/C

>  <measure_unit>
%

>  <observed_value>
76.6

$$$$
>  <compound>
CC[C@@]1(O)C(=O)OCc2c1cc1n(c2=O)Cc2cc3c(CN(C)C)c(O)ccc3nc2-1 + Cc1cncc(-c2nc(NCCc3c[nH]c4ccccc34)c3ncn(C(C)C)c3n2)c1

>  <assay_system>
A498 complex spheroids with HUVEC/MSC, growth

>  <measured_attribute>
viability, T/C

>  <measure_unit>
%

>  <observed_value>
7.18

$$$$

Quick one: give me viability, T/C for each item below, same order please.
1. Cn1ncnc1C1c2n[nH]c(=O)c3cc(F)cc(c23)NC1c1ccc(F)cc1 (configuration not stated) + Cc1cncc(-c2nc(NCCc3c[nH]c4ccccc34)c3ncn(C(C)C)c3n2)c1
2. CC[C@@]1(O)C(=O)OCc2c1cc1n(c2=O)Cc2cc3c(CN(C)C)c(O)ccc3nc2-1 + Cc1ccccc1N=Nc1ccc(NC(=O)c2ccnn2C)c(C)c1
3. Cn1ncnc1C1c2n[nH]c(=O)c3cc(F)cc(c23)NC1c1ccc(F)cc1 (configuration not stated) + CC(CO)NC(=O)c1cc(-c2ccc(Cl)cc2)nn(-c2cnn(C)c2)c1=O
4. Nc1ncn(C2CC(O)C(CO)O2)c(=O)n1 (configuration not stated) + CC(CO)NC(=O)c1cc(-c2ccc(Cl)cc2)nn(-c2cnn(C)c2)c1=O
5. Nc1ncn(C2CC(O)C(CO)O2)c(=O)n1 (configuration not stated) + Cc1ccccc1N=Nc1ccc(NC(=O)c2ccnn2C)c(C)c1
6. CC1COCCN1c1cc(-c2ccnn2C)c2ccnc(-c3ccn[nH]3)c2n1 (configuration not stated) + Cc1cncc(-c2nc(NCCc3c[nH]c4ccccc34)c3ncn(C(C)C)c3n2)c1
7. CC1COCCN1c1cc(-c2ccnn2C)c2ccnc(-c3ccn[nH]3)c2n1 (configuration not stated) + CC(CO)NC(=O)c1cc(-c2ccc(Cl)cc2)nn(-c2cnn(C)c2)c1=O

Response:
1. 6.28
2. 89.1
3. 75.9
4. 62
5. 90.7
6. 3.71
7. 65.7

Ref: PubChem BioAssay AID1919007
